Hey, just so you know, these numbers are from patent US20240279318A1.

Listed below: Affinity increase values for each entry.
- system_tested: T1, AFP158/HLA-A*02:01 complex (human)
- T1 construct: flowed over the chip in SPR; also called AFP158 pro
- assay_name: SPR, KD ratio to AS170036 VL1VH1;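 further: crude scFv captured on a sensor chip, peptide–HLA complex passed over at several concentrations, association then buffer dissociation, KD derived from on- and off-rates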
parameter: Affinity increase (fold)

binder	measured_value
LH98T (scFv, AS170036 VL1VH1 scFv mutein; also called AS170036 VL1VH1-VLH98T) scFv: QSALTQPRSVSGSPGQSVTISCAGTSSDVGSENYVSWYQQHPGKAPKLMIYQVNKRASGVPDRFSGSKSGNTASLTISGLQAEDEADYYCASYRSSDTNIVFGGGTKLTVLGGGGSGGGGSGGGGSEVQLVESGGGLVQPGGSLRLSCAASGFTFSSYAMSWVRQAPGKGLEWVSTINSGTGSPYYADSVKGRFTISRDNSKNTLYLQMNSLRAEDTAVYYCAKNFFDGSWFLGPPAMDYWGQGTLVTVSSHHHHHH	2.9
LY34M (scFv, AS170036 VL1VH1 scFv mutein) scFv: QSALTQPRSVSGSPGQSVTISCAGTSSDVGSENMVSWYQQHPGKAPKLMIYQVNKRASGVPDRFSGSKSGNTASLTISGLQAEDEADYYCASYRSSDHNIVFGGGTKLTVLGGGGSGGGGSGGGGSEVQLVESGGGLVQPGGSLRLSCAASGFTFSSYAMSWVRQAPGKGLEWVSTINSGTGSPYYADSVKGRFTISRDNSKNTLYLQMNSLRAEDTAVYYCAKNFFDGSWFLGPPAMDYWGQGTLVTVSSHHHHHH	0.2
LH98D (scFv, AS170036 VL1VH1 scFv mutein) scFv: QSALTQPRSVSGSPGQSVTISCAGTSSDVGSENYVSWYQQHPGKAPKLMIYQVNKRASGVPDRFSGSKSGNTASLTISGLQAEDEADYYCASYRSSDDNIVFGGGTKLTVLGGGGSGGGGSGGGGSEVQLVESGGGLVQPGGSLRLSCAASGFTFSSYAMSWVRQAPGKGLEWVSTINSGTGSPYYADSVKGRFTISRDNSKNTLYLQMNSLRAEDTAVYYCAKNFFDGSWFLGPPAMDYWGQGTLVTVSSHHHHHH	0.2
LD97N (scFv, AS170036 VL1VH1 scFv mutein) scFv: QSALTQPRSVSGSPGQSVTISCAGTSSDVGSENYVSWYQQHPGKAPKLMIYQVNKRASGVPDRFSGSKSGNTASLTISGLQAEDEADYYCASYRSSNHNIVFGGGTKLTVLGGGGSGGGGSGGGGSEVQLVESGGGLVQPGGSLRLSCAASGFTFSSYAMSWVRQAPGKGLEWVSTINSGTGSPYYADSVKGRFTISRDNSKNTLYLQMNSLRAEDTAVYYCAKNFFDGSWFLGPPAMDYWGQGTLVTVSSHHHHHH	1
LY34W (scFv, AS170036 VL1VH1 scFv mutein) scFv: QSALTQPRSVSGSPGQSVTISCAGTSSDVGSENWVSWYQQHPGKAPKLMIYQVNKRASGVPDRFSGSKSGNTASLTISGLQAEDEADYYCASYRSSDHNIVFGGGTKLTVLGGGGSGGGGSGGGGSEVQLVESGGGLVQPGGSLRLSCAASGFTFSSYAMSWVRQAPGKGLEWVSTINSGTGSPYYADSVKGRFTISRDNSKNTLYLQMNSLRAEDTAVYYCAKNFFDGSWFLGPPAMDYWGQGTLVTVSSHHHHHH	0.6
